Entry source: patent US20240300945A1

Catalogue of 15-day hair length readings, one per entry.
- System: rat hair loss model
- ASSAY_NAME: Rat hair loss (androgenic alopecia) model: hair length
- Format: in vivo, Wistar rats
- APPLIED_CONDITIONS: rat AGA model; intravenous injection 2 mg/kg·d
Marks after values point to notes of the source that are not given here.

- COMPOUND: "O=C(c1ccc(-n2nnc3cccnc32)cc1)N(c1ncccc1Cl)[C@@H]1CCNC1"
  15-day hair length: "7.3* mm"
- COMPOUND: "CN1CCC[C@@H](N(C(=O)c2ccc(-n3nnc4cccnc43)cc2)c2ncccc2Cl)C1"
  15-day hair length: "8.7* mm"
- COMPOUND: "O=C(c1ccc(-c2ccccc2-c2nnn[nH]2)cc1)N(c1ncccc1Cl)[C@@H]1CCCNC1"
  15-day hair length: "8.8* mm"
- COMPOUND: "NC1CCCC(N(C(=O)c2ccc(-n3nnc4cccnc43)cc2)c2ncccc2Cl)C1 (stereo not shown)"
  15-day hair length: "8.6* mm"
- COMPOUND: "Nc1ccccc1-c1ccc(C(=O)N(c2ncccc2Cl)[C@@H]2CCCNC2)cc1"
  15-day hair length: "9.3* mm"
- COMPOUND: "CNC1CCCC(N(C(=O)c2ccc(-n3nnc4cccnc43)cc2)c2ncccc2Cl)C1 (stereo not shown)"
  15-day hair length: "7.3* mm"
- COMPOUND: "O=C(c1ccc(-n2nnc3cccnc32)cc1)N(c1ncccc1Cl)C1CCCC(O)C1 (stereo not shown)"
  15-day hair length: "7.1* mm"
- COMPOUND: "O=C(c1ccc(-c2ccccc2Cl)cc1)N(c1ncccc1Cl)[C@@H]1CCCNC1"
  15-day hair length: "8.6* mm"
- COMPOUND: "CCN1CCC[C@@H](N(C(=O)c2ccc(-n3nnc4cccnc43)cc2)c2ncccc2Cl)C1"
  15-day hair length: "9.2* mm"
- COMPOUND: "COC1CCCC(N(C(=O)c2ccc(-n3nnc4cccnc43)cc2)c2ncccc2Cl)C1 (stereo not shown)"
  15-day hair length: "7.8* mm"

====

- Tested on: skin melanocytes
- ASSAY_NAME: Chloasma model of guinea pig: pathomorphological observation of skin melanocytes
- Assay type: in vivo
- APPLIED_CONDITIONS: 0.25% cream once a day, 30 days
// reported Integrated optical density (melanocyte depth) per item
QUANTITY_NAME: Integrated optical density (melanocyte depth)

- COMPOUND: "COC1CCCC(N(C(=O)c2ccc(-n3nnc4cccnc43)cc2)c2ncccc2Cl)C1 (stereo not shown)"
  RESULT: "107.06 ± 9.57"
- COMPOUND: "O=C(c1ccc(-c2ccccc2-c2nnn[nH]2)cc1)N(c1ncccc1Cl)[C@@H]1CCCNC1"
  RESULT: "102.65 ± 9.97"
- COMPOUND: "NC1CCCC(N(C(=O)c2ccc(-n3nnc4cccnc43)cc2)c2ncccc2Cl)C1 (stereo not shown)"
  RESULT: "101.38 ± 9.92"
- COMPOUND: "CCN1CCC[C@@H](N(C(=O)c2ccc(-n3nnc4cccnc43)cc2)c2ncccc2Cl)C1"
  RESULT: "106.96 ± 9.84"
- COMPOUND: "CNC1CCCC(N(C(=O)c2ccc(-n3nnc4cccnc43)cc2)c2ncccc2Cl)C1 (stereo not shown)"
  RESULT: "95.36 ± 9.86"
- COMPOUND: "O=C(c1ccc(-n2nnc3cccnc32)cc1)N(c1ncccc1Cl)C1CCCC(O)C1 (stereo not shown)"
  RESULT: "92.45 ± 9.36"
- COMPOUND: "O=C(c1ccc(-n2nnc3cccnc32)cc1)N(c1ncccc1Cl)[C@@H]1CCNC1"
  RESULT: "103.15 ± 9.52"
- COMPOUND: "CN1CCC[C@@H](N(C(=O)c2ccc(-n3nnc4cccnc43)cc2)c2ncccc2Cl)C1"
  RESULT: "103.34 ± 9.71"
- COMPOUND: "Nc1ccccc1-c1ccc(C(=O)N(c2ncccc2Cl)[C@@H]2CCCNC2)cc1"
  RESULT: "101.36 ± 9.72"
- COMPOUND: "O=C(c1ccc(-c2ccccc2Cl)cc1)N(c1ncccc1Cl)[C@@H]1CCCNC1"
  RESULT: "97.62 ± 9.91"
